- TESTED TARGET: IR (Homo sapiens)
- Construct: purchased Millipore 14-803
- Sequence (P06213 28-1382): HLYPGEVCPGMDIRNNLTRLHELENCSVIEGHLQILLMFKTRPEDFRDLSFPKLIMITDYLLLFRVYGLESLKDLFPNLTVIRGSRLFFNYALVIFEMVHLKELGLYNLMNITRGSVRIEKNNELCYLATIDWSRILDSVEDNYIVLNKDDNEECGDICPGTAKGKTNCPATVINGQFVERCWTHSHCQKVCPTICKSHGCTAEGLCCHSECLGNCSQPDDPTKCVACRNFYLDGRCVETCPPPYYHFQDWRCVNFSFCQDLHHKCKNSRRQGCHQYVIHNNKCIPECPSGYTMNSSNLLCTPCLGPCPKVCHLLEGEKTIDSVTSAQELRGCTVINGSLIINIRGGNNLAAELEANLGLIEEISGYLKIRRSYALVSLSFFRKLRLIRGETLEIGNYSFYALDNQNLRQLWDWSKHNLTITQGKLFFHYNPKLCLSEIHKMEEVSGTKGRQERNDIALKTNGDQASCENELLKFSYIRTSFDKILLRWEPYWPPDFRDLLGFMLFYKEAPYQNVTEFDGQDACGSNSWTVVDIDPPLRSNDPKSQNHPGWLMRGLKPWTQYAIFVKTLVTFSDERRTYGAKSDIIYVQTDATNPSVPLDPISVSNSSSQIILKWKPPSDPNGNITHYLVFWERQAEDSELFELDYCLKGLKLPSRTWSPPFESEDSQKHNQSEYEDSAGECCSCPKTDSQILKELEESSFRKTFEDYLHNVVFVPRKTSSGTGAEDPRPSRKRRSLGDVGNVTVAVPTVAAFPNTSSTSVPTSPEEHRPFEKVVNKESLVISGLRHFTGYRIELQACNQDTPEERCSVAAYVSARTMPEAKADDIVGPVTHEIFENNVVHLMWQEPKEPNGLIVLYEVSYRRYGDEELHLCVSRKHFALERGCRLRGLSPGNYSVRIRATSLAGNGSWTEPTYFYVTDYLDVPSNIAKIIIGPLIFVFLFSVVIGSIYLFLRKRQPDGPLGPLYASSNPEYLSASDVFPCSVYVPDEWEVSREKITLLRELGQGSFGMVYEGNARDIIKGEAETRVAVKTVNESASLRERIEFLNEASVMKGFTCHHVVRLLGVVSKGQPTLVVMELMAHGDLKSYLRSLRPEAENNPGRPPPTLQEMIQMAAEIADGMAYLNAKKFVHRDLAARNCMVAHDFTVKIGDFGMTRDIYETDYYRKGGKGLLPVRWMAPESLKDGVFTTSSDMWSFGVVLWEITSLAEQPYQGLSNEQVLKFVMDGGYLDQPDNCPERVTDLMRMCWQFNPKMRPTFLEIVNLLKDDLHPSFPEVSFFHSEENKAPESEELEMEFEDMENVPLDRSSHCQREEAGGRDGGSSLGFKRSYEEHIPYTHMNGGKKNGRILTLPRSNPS
- ASSAY METHOD TEXT: In vitro IR enzymatic assay (ADP-Glo kinase assay)
- Format: biochemical
- STUDY CONDITIONS: activated IR, 30 nM, average
- Procedure: IC50 values of the compounds of the invention against IGF-1R and IR were measured in vitro using an ADP-Glo kinase assay Kit (Promega). […] Kinase reactions in both assays were conducted at 30° C. for 20 min with increasing concentrations of compounds of the invention. Additional compounds of the invention were screened against activated IR.
MEASURE: % Inh @ 30 nM Avg (%)
Numeric answer only, unit % assumed.

Example compounds with recorded % Inh @ 30 nM Avg:
COMPOUND | RESULT UNITS | % Inh @ 30 nM Avg
CNC(=O)C1CCCN1c1nc2c(c(Nc3cc(C(C)C)[nH]n3)n1)CCC2 (single isomer, unassigned) [Compound 19b] | % | 9
O=C(Nc1ccc(F)nc1)C1CCCCN1c1nc2c(c(Nc3cc(C4CCCC4)[nH]n3)n1)CCC2 (single isomer, unassigned) [Compound 17b] | % | 6
CC(C)c1cc(Nc2nc(N3CCCC3C(=O)Nc3ccc(F)nc3)nc3c2CCC3)n[nH]1 (single isomer, unassigned) | % | 92
CC(C)c1cc(Nc2nc(N3CCCCC3C(=O)Nc3ccc(F)nc3)nc3c2CCC3)n[nH]1 (single isomer, unassigned) [Compound 16a] | % | −3
CC(C)c1cc(Nc2nc(N3CCCCC3C(=O)Nc3ccc(F)nc3)nc3c2CCC3)n[nH]1 (single isomer, unassigned) [Compound 16b] | % | 25

Read the next record carefully.
Quick note, % Inh @ 30 nM Avg for O=C(Nc1ccc(F)nc1)C1C(O)CCN1c1nc2c(c(Nc3cc(C4CC4)[nH]n3)n1)CCC2 (single isomer, unassigned) [Compound 11b] landed at 3

###

- System: Akt phosphorylation induced by IGF-1R
- ASSAY METHOD TEXT: Western blot analysis of Akt phosphorylation induced by IGF-1 in HT-29 cells
- Assay type: cell-based, Human
- STUDY CONDITIONS: 100 nM; Table B2 lower part
Outcome: label 1 for p-AKT relative to levels with 0.1 nM compound of at least 0.5; label 0 for anything lower.

Here's what some known entries look like.
MOLECULE | QUALITATIVE LABEL
O=C(Nc1ccc(F)nc1)C1CCCN1c1nc2c(c(Nc3cc(C4CC4)[nH]n3)n1)CCC2 (single isomer, unassigned) [Compound 2b] | label 0
O=C(Nc1ccc(F)nc1)C1CCCCN1c1nc2c(c(Nc3cc(C4CCCC4)[nH]n3)n1)CCC2 (single isomer, unassigned) [Compound 17b] | label 1
O=C(Nc1ccc(F)nc1)C1CC(O)CN1c1nc2c(c(Nc3cc(C4CC4)[nH]n3)n1)CCC2 (racemic) [Compound 10a] | label 0
O=C(Nc1cnccn1)C1CCCN1c1nc2c(c(Nc3cc(C4CC4)[nH]n3)n1)CCC2 (single isomer, unassigned) [Compound 6b] | label 0
O=C(Nc1ccc(F)nc1)C1CCCCN1c1nc2c(c(Nc3cc(C4CC4)[nH]n3)n1)CCC2 (single isomer, unassigned) [Compound 9a] | label 0
O=C(Nc1ccc(F)nc1)C1CCCN1c1nc2c(c(Nc3cc(C4CCCC4)[nH]n3)n1)CCC2 (single isomer, unassigned) [Compound 4a] | label 1

*Q* Tell me whether p-AKT relative to levels with 0.1 nM compound is at least 0.5 here: O=C(Nc1cccnc1)C1CCCN1c1nc2c(c(Nc3cc(C4CC4)[nH]n3)n1)CCC2 (single isomer, unassigned) [Compound 3a]
*A* label 1
